Every entry's value here was drawn from patent US10940139B2.

inhibition at 10 µM reference
- System: MIA-PACA2 pancreatic cancer cell lines
- ASSAY: Cell proliferation assay, alternate assay conditions (DAPI fluorescence)
- Assay type: cell-based
- MEASUREMENT PARAMETERS: Homo sapiens, MIA PaCa-2; * = tested at 10 μM, alternate conditions, MIA-PACA2

Check out these entries, answers already filled in.
CC(CO)Nc1nc(-c2nccn2C)nc2sc(-c3ccccc3)c(-c3ccccc3)c12 (stereo not drawn) [drawing 1880] = 76 to 100%
Cc1sc2c(O)nc(-c3ccccn3)nc2c1C(=O)N1CCN(Cc2cccc(O)c2)CC1 [drawing 1809] = 25 to 50%
Cn1ccnc1-c1nc(O)c2c(-c3ccccc3)c(-c3ccccc3)sc2n1 [drawing 1838] = 76 to 100%
Cn1ccnc1-c1nc(O)c2scc(-c3ccc(F)cc3F)c2n1 [drawing 1918] = 76 to 100%

Entry Cn1cnc(-c2nc(O)c3c(-c4ccccc4)c(-c4ccc(CNC(=O)OC(C)(C)C)cc4)sc3n2)c1 [drawing 1839] , inhibition at 10 µM reported as 25 to 50%

Entry COc1nc(-c2ccccn2)nc(Oc2cccc(C(F)(F)F)c2)c1O [drawing 1867] , inhibition at 10 µM reported as 1 to 25%

----------
- Test system: TNFα production in RAW 264.7 macrophage cell line
- ASSAY: Mouse TNF alpha quantification assay (LPS-stimulated macrophages, ELISA)
- Format: cell-based
- MEASUREMENT PARAMETERS: RAW264.7, RAW 264.7 murine leukemia virus transformed macrophage cell lines, LPS stimulation, read-out: TNF-α % Inhibition at 30 μM
inhibition at 30 µM reference
Enter your answer as a number in %; do not include the unit.

COCCOCCN(C)C(=O)c1csc2c(O)nc(-c3ccccn3)nc12 [drawing 2113] = 0
N#Cc1cccc(N2CCN(C(=O)c3csc4c(O)nc(-c5ccccn5)nc34)CC2)c1 [drawing 2181] = 0

Moving on to another compound below.
Value sought: inhibition at 30 µM, system TNFα production in RAW 264.7 macrophage cell line, item Cc1sc2c(O)nc(-c3ccccn3)nc2c1C(=O)N1CCN(c2ccccc2)CC1C (stereo not shown) [drawing 2333] . Result: 0

----------
- ASSAY SYSTEM: KRas G12D mutant protein (Homo sapiens (Human), UniProt P01116, G12D)
- Sequence (P01116-2 other isoform, or with tags, fused parts or gaps G12D): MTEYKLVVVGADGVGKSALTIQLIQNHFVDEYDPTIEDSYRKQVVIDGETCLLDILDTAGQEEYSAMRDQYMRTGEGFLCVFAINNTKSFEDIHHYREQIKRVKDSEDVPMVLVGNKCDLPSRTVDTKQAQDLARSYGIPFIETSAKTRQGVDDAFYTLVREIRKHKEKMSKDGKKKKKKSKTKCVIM
- ASSAY: Ras GTP binding domain inhibition assay (labeled GTP)
- MEASUREMENT PARAMETERS: at 20 μM; read-out: KRas G12D % Inh.
inhibition at 20 µM reference

COCCNc1nc(-c2cn(C)cn2)nc2sc(-c3ccccc3)c(-c3ccccc3)c12 [drawing 3901] = 25 to 50%
Cc1sc2c(O)nc(-c3nccn3C)nc2c1-c1ccc(OC(C)C)c(F)c1 [drawing 3928] = 51 to 75%
O=C(c1csc2c(O)nc(-c3ccccn3)nc12)N1CCOC(c2ccccc2Cl)C1 (stereo not shown) [drawing 3658] = 25 to 50%
COCCNc1nc(-c2cn(C)cn2)nc2sc(-c3ccncc3)c(-c3ccccc3)c12 [drawing 3848] = 51 to 75%

Entry Oc1nc(-c2ccccn2)nc2c(C3CCCC3)csc12 [drawing 3814] , inhibition at 20 µM reported as 51 to 75%

Entry COCCNc1nc(-c2nccn2C)nc2sc(-c3ccncc3)c(-c3ccccc3)c12 [drawing 3900] , inhibition at 20 µM reported as 51 to 75%

Entry CN(C)Cc1ccc(-c2csc3c(O)nc(-c4ccccn4)nc23)cc1F [drawing 3717] , inhibition at 20 µM reported as 76 to 100%

----------
- ASSAY SYSTEM: K-Ras (G12D) (Homo sapiens (Human), UniProt P01116, G12D)
- Sequence (P01116-2 other isoform, or with tags, fused parts or gaps G12D): as above
- ASSAY: Scintillation Proximity Assay (SPA), GTP affinity for binding domain
QUANTITY NAME: Kd (nM)
Enter your answer as a number in nM; do not include the unit.

Entry Nc1nc2c(ncn2[C@@H]2O[C@H](COP(=O)(O)OP(=O)(O)OP(=O)(O)O)[C@@H](O)[C@H]2O)c(=O)[nH]1 [GTP] , Kd reported as 270

----------
- ASSAY SYSTEM: KRas Q61H mutant (Homo sapiens (Human), UniProt P01116, Q61H)
- Sequence (P01116-2 other isoform, or with tags, fused parts or gaps Q61H): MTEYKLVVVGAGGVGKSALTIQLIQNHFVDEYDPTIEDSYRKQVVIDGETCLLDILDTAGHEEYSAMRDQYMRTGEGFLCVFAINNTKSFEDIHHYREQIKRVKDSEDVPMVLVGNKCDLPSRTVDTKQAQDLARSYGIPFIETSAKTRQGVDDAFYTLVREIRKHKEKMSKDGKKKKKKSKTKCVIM
- ASSAY: Ras GTP binding domain inhibition assay (labeled GTP)
- MEASUREMENT PARAMETERS: 20 μM compound; read-out: % Inhibition at 20 μM KRas Q61H
QUANTITY NAME: inhibition at 20 µM

Check out these entries, answers already filled in.
COc1ccccc1-c1csc2c(O)nc(-c3ccccn3)nc12 [drawing 2870] = 25 to 50%
COc1ccc(C2CN(C(=O)c3csc4c(O)nc(-c5ccccn5)nc34)CCN2)cc1 (centres unmarked) [drawing 2774] = 76 to 100%
Oc1nc(-c2ccccn2)nc2c(-c3ccc4c(c3)CCCO4)csc12 [drawing 2902] = 51 to 75%
O=C(CCn1ccnc1)Nc1nc(-c2ccccn2)nc2sccc12 [drawing 2889] = 76 to 100%
O=C(NCCc1cnc(O)nc1)c1csc2nc(-c3ccccn3)nc(N3CCS(=O)(=O)CC3)c12 [drawing 2854] = 25 to 50%
O=C(c1csc2c(O)nc(-c3ccccn3)nc12)N1CCN(Cc2cccc(O)c2)CC1 [drawing 2726] = 76 to 100%
Oc1nc(-c2ccccn2)nc2c(-c3ccc(F)cc3F)csc12 [drawing 2871] = 51 to 75%
COc1cc(OC)cc(N2CCN(C(=O)c3csc4c(O)nc(-c5ccccn5)nc34)CC2)c1 [drawing 2757] = 1 to 25%

Entry O=C(NCCc1cccnc1)c1csc2nc(-c3ccccn3)nc(N3CCOCC3)c12 [drawing 2744] , inhibition at 20 µM reported as 51 to 75%

Entry COc1ccnc(-c2nc(O)c3c(Br)csc3n2)c1 [drawing 2742] , inhibition at 20 µM reported as 25 to 50%

Entry CCn1nc(C)cc1-c1csc2c(O)nc(-c3ccccn3)nc12 [drawing 2903] , inhibition at 20 µM reported as 51 to 75%

Entry COc1ccc(F)cc1-c1csc2c(O)nc(-c3ccccn3)nc12 [drawing 2874] , inhibition at 20 µM reported as 25 to 50%

Entry O=C(c1csc2c(O)nc(-c3ccccn3)nc12)N1CCOC(c2cccc(F)c2)C1 (centres unmarked) [drawing 2732] , inhibition at 20 µM reported as 1 to 25%

Entry COc1nccc(CCNC(=O)c2csc3nc(-c4ccccn4)nc(N4CCOCC4)c23)n1 [drawing 2897] , inhibition at 20 µM reported as 25 to 50%

Entry Oc1nc(-c2ccccn2)nc2c(-c3ccc(OC4CCOC4)cc3)csc12 (centres unmarked) [drawing 2862] , inhibition at 20 µM reported as 25 to 50%

Entry CC(C)(O)c1ccc(-c2csc3c(O)nc(-c4ccccn4)nc23)c(F)c1 [drawing 2880] , inhibition at 20 µM reported as 51 to 75%

Entry Oc1nc(-c2ccccn2)nc2c(-c3ccccc3)csc12 [drawing 2694] , inhibition at 20 µM reported as 51 to 75%

Entry O=C(NCCc1cncnc1)c1csc2nc(-c3ccccn3)nc(N3CCOCC3)c12 [drawing 2784] , inhibition at 20 µM reported as 25 to 50%

Entry Cc1ccccc1N1CCN(C(=O)c2csc3c(O)nc(-c4ccccn4)nc23)CC1 [drawing 2723] , inhibition at 20 µM reported as 51 to 75%

Entry Nc1nc(-c2ccccn2)nc2c(-c3ccccc3)csc12 [drawing 2859] , inhibition at 20 µM reported as 25 to 50%

Entry O=C(c1csc2c(O)nc(-c3ccccn3)nc12)N1CCC(c2cccc(O)c2)C1 (centres unmarked) [drawing 2840] , inhibition at 20 µM reported as 76 to 100%

Entry Oc1nc(-c2ccccn2)nc2c(-c3ccc(OC4CCOCC4)cc3)csc12 [drawing 2867] , inhibition at 20 µM reported as 25 to 50%

Entry O=C(c1csc2c(O)nc(-c3ccccn3)nc12)N1CCOC(CN2CCOCC2)C1 (centres unmarked) [drawing 2805] , inhibition at 20 µM reported as 51 to 75%

Entry O=C(c1csc2c(O)nc(-c3ccccn3)nc12)N1CCN(c2cccc(F)c2)CC1 [drawing 2753] , inhibition at 20 µM reported as 76 to 100%

----------
- Test system: TNFα production in RAW 264.7 macrophage cell line
- ASSAY: Mouse TNF alpha quantification assay (LPS-stimulated macrophages, ELISA)
- Format: cell-based
- MEASUREMENT PARAMETERS: RAW264.7, RAW 264.7 murine leukemia virus transformed macrophage cell lines, LPS stimulation, read-out: TNF-α % Inhibition at 30 μM
inhibition at 30 µM reference

Oc1nc(-c2ccccn2)nc2cc(-c3ccccc3)sc12 [drawing 2389] = 1 to 25%
Cc1cc2nc(-c3ccccn3)nc(N)c2s1 [drawing 2229] = 1 to 25%
Cc1sc2c(O)nc(-c3nccn3C)nc2c1-c1ccccc1Cl [drawing 2429] = 1 to 25%
Nc1nc(O)c2scc(C(=O)N3CCC(N4CCOCC4)CC3)c2n1 [drawing 2093] = 1 to 25%
O=C(Nc1nnc(-c2ccccn2)[nH]1)C1CCCC(C(F)(F)F)C1 (stereo not shown) [drawing 1972] = 0%
Oc1nc(-c2ccccn2)nc2sc3c(c12)CCCNC3 [drawing 2245] = 1 to 25%
Nc1nc(-c2ccccn2)nc2c(-c3ccccc3Cl)csc12 [drawing 2228] = 1 to 25%
O=C(c1csc2c(O)nc(-c3ccccn3)nc12)N1CCNC(Cc2ccccc2)C1 (stereo not shown) [drawing 2202] = 1 to 25%
Oc1nc(-c2ccccn2)nc2c(-c3cncc(C(F)(F)F)c3)csc12 [drawing 2304] = 0%
O=C(c1csc2c(O)nc(-c3ccccn3)nc12)N1CCNC(Cc2ccc(F)cc2)C1 (stereo not shown) [drawing 2224] = 1 to 25%

Value sought: inhibition at 30 µM, system TNFα production in RAW 264.7 macrophage cell line, item Nc1nc(-c2ccccn2)nc2c(Br)csc12 [drawing 2284] . Result: 0%

Value sought: inhibition at 30 µM, system TNFα production in RAW 264.7 macrophage cell line, item COCCNc1nc(-c2nccn2C)nc2sc(-c3cccc(OC)c3)c(-c3ccccc3)c12 [drawing 2413] . Result: 76 to 100%
